Molecular target: human ether-à-go-go-related gene (hERG) potassium channel (human, UniProt Q12809);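 note: peak tail current of the secondary pulse compared with the same well before compound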
Sequence (Q12809 whole entry, looked up): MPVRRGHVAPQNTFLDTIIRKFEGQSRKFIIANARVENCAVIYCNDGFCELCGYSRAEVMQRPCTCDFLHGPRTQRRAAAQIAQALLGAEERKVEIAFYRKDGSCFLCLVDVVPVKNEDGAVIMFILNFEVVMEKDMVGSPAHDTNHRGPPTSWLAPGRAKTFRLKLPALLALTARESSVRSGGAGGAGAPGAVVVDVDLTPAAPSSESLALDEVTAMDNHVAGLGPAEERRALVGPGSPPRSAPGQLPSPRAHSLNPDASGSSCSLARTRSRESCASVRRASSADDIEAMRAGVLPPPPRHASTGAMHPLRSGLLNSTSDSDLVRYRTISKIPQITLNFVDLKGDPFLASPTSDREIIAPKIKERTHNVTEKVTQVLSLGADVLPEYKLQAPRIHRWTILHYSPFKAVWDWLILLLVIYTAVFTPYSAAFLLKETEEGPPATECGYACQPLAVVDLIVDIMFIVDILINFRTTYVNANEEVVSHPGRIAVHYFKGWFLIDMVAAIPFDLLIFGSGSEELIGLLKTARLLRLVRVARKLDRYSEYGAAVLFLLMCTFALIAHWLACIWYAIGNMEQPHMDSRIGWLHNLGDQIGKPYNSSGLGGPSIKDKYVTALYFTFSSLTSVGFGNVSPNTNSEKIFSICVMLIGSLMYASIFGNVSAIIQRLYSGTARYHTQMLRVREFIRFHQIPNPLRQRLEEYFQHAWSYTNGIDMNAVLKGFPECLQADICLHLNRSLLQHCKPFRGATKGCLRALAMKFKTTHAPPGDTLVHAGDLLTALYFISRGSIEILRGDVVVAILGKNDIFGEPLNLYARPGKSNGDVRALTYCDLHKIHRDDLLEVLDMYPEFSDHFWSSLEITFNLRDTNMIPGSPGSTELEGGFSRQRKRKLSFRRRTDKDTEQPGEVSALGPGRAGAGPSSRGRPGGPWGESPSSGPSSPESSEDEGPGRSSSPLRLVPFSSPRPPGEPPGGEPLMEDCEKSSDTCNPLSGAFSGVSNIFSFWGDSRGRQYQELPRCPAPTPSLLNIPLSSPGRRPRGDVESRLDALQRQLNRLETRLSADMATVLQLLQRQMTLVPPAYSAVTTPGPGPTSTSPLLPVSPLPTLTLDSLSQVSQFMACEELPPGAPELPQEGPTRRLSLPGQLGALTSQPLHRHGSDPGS
Assay: primary screen, population patch clamp on CHO cells stably expressing hERG; higher = less effect of the substance
In all, about 310,000 compounds went through this assay and about 14,000 (4.5%) showed an effect of 50% or more. The effect is printed as a negative number. The entries come from a sample that favours strong results as a whole.
Label rule, in plain words: hERG current change (%, negative = inhibition) at 10uM of -30% and up is TRUE, under -30% is FALSE.

1) Cc1ccc(CNc2ccc3c(c2)ncn3C)cc1 | FALSE
2) CC(C)(C)n1cnc2cc(NCc3ccc(Br)cc3)ccc21 | FALSE
3) CCc1ccc(CNc2ccc3c(c2)ncn3C(C)(C)C)cc1 | FALSE
4) O=C1CSC(c2cn(-c3ccccc3)nc2-c2cc3ccccc3o2)N1Cc1ccccc1 (centres unmarked) | TRUE

API: the following record is the query input.
IN: Does hERG current change (%, negative = inhibition) at 10uM meet or surpass -30% for Cc1ccc(CNc2ccc3c(c2)ncn3C(C)C)cc1 ?
OUT: FALSE

* * *

Molecular target: human ether-à-go-go-related gene (hERG) potassium channel (human, UniProt Q12809);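 note: peak tail current of the secondary pulse compared with the same well before compound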
Assay: primary screen, population patch clamp on CHO cells stably expressing hERG; higher = less effect of the substance
Hit rate of the full screen: of about 310,000 compounds, about 14,000 (4.5%) showed an effect of 50% or more. Effects have a minus sign here. Only a selection was taken, and strong results are over-represented in it overall.
So I've got a bunch of compounds here, and I need their hERG current change (%, negative = inhibition) at 10uM values.
Answers are plain numbers, in %.

1. CN1CCN(CC(=O)Nc2cc(S(=O)(=O)N3CCOCC3)ccc2Cl)CC1 | 4.13
2. CCOc1ccc(NC(=O)CSc2nnc(-c3ccccc3)n2N)cc1 | 6.02
3. C/C(=C1/SC(N2CCOCC2)=NC1=O)c1ccc(Br)cc1 | 14.8
4. CC1CC(C)CN(C(=O)c2ccc3nc[nH]c3c2)C1 (centres unmarked) | 4.05
5. O=C(C1CCCN(S(=O)(=O)c2ccc(Br)cc2)C1)N1CCOCC1 (centres unmarked) | -13.8

# batch size: 8; output hERG current change (%, negative = inhibition) at 10uM per entry
1. Cc1ccc(NC(=O)CSCC(=O)N2c3ccccc3CCc3ccccc32)cc1
2. O=C(CN1CCOCC1)Nc1cc([N+](=O)[O-])ccc1Cl
3. O=C(C1CCCN(S(=O)(=O)c2cccs2)C1)N1CCN(C2CCCCC2)CC1 (centres unmarked)
4. CCOC(=O)CNC(=O)CSc1nnc(-c2cccc(OC)c2)n1CC
5. CCOc1ccc(S(=O)(=O)N2CCCC(C(=O)N3CCN(c4ccccc4)CC3)C2)cc1 (centres unmarked)
6. CNC(=O)CSc1nnc(-c2ccco2)n1-c1ccc(C)cc1
7. COC(=O)c1sc2nc(N)c(C#N)cc2c1N
8. COc1ccc(S(=O)(=O)N2CCN(CC(=O)Nc3cc(Cl)ccc3Cl)CC2)cc1

OUT:
7.66
-17
-24.6
7.24
-56.3
-49.5
31.1
-7.44

# batch size: 4; output hERG current change (%, negative = inhibition) at 10uM per entry
1. O=C(C1CCCN(S(=O)(=O)c2ccc(Br)cc2)C1)N1CCN(Cc2ccccc2)CC1 (centres unmarked)
2. CCOC(=O)C(C(=O)OCC)N(C#N)c1nc(OC)nc(N(C)C)n1
3. Cc1ccc(-n2c(SCC(=O)Nc3ccc4cn[nH]c4c3)nnc2-c2ccco2)cc1
4. O=C(CN1C(=O)c2ccc([N+](=O)[O-])cc2C1=O)Nc1cc(S(=O)(=O)N2CCOCC2)ccc1Cl

OUT:
1: -55.1; 2: -4.52; 3: -62.4; 4: -60.8

Values from paper PMC4336329
